SH2 binding enrichment reference
target: Grb2 SH2 (UniProt P62993); assay: SH2 binding enrichment of the phosphorylated peptide, bacterial display (enrichment ratio); higher = better substrate or ligand; peptides without Tyr show the background
Sequence (P62993 whole entry, looked up): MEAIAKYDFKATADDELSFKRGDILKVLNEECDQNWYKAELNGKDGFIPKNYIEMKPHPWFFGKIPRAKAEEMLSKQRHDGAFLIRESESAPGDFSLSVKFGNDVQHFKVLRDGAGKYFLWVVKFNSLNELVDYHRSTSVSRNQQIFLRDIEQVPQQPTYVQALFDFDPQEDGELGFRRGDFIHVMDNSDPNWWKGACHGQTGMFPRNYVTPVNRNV

CHAIN_SEQUENCE	SH2 binding enrichment
TSQSQYSSFRE [CCDC170_Y323_F324S]	1.1
ILGLEYSLRLP [HELZ2_Y1304_V1308L]	0.877
KVALPYKPFFF [POLE_Y100_YF]	1.3
PPTYRYERGSR [INPPL1_Y663]	0.613
RLEGVYRNNID [PTEN_Y46]	0.948
MSRDVYSTDCY [NTRK2_Y702_Y706C]	1.15
CTTIHYNSMCN [TP53_Y234_Y236S]	1.01
AAVDEYLEYRR [FAM221A_Y17]	0.846
PVQAASQKVVA [HBB_Y131_Y131S]	0.623
PTTKTYFPHFY [HBA1_Y43_D48Y]	0.771
VQNIVYHTASI [CYP39A1_Y102_R103H]	0.82
APIEDYGGGGG [B4GALT6_Y382]	0.702
NTYEKYWLFYQ [GATM_Y103_P105L]	0.788
TVEDHDYEGGI [TKT_Y563_Y563D]	1.15

====

molecular target: EPHB2 (UniProt P29323); experiment: phosphorylation enrichment, bacterial display (enrichment ratio); higher = better substrate or ligand; peptides without Tyr show the background
Sequence (P29323 whole entry, looked up): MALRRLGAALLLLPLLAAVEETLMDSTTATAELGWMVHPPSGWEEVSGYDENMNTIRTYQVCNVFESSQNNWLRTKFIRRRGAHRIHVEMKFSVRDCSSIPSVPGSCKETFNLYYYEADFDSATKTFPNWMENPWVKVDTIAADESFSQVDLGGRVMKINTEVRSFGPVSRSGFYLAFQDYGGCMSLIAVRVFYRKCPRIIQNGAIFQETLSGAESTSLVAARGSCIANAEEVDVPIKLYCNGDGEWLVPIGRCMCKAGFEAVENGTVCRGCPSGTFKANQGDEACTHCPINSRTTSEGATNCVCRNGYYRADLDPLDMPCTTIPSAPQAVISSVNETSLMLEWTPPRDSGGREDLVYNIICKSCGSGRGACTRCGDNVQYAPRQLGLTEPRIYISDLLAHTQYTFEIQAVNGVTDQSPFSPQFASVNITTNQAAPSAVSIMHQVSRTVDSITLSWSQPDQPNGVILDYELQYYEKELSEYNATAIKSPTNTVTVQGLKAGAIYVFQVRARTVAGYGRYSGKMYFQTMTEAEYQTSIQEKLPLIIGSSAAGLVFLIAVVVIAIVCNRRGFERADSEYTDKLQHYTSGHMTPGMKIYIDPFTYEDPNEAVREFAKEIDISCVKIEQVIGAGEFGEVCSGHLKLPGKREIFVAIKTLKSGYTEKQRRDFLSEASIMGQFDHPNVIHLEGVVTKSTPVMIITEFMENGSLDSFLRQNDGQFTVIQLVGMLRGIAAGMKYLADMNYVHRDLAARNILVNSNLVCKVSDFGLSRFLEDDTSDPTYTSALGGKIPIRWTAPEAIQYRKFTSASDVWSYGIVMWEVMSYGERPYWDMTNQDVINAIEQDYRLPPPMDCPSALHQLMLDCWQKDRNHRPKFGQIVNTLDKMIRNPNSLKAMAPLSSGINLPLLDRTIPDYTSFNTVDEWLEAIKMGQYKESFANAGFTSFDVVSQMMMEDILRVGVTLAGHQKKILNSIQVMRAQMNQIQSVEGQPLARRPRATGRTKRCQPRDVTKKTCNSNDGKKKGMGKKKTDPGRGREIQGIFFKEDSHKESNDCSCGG

CHAIN_SEQUENCE	phosphorylation enrichment
ADKSAYLMGLN [MYH7_Y386]	0.465
RSSGSYGGGGQ [HNRNPA1_Y341_P340S]	0.606
CNNFIYGGCRG [SPINT2_Y163]	0.404
DSFATYFRWVL [H2BW1_Y84_R87W]	3.54
RAEIVYKSPVV [MAPT_Y711_G706R]	0.507
RFLRGYQQDAY [HLA-A_Y137_R138Q]	0.535
LEQDEYALRSH [HADHB_Y244]	1.69
NRLNDYIFSFD [RARS1_Y516]	0.538
LVSCAYQVARG [FGFR1_Y605]	0.612
DNAFQYMLTDR [MYH7_Y164_YF]	0.496
AIMSFYAALIN [RYR1_Y2426_D2431N]	0.991
ARMTNYGLPRY [TSPAN12_Y138]	0.588
DSFSSYCNAVA [SLC20A2_Y436_YF]	0.826
PQQLWYTHKKK [UBTF_Y207_E210K]	1.14

====

target: EPHB2 (UniProt P29323); experiment: phosphorylation enrichment, bacterial display (enrichment ratio); higher = better substrate or ligand; peptides without Tyr show the background
PROPERTY_MEASURED: phosphorylation enrichment

CHAIN_SEQUENCE	ENDPOINT_RESULT
RFLRGYRQHAF [HLA-A_Y137_D140H_YF]	0.599
KVALPYKPFFF [POLE_Y100_YF]	0.715
NQDRTYFESVR [SPEN_Y632_YF]	0.617
AAFNRYDQERF [CDC73_Y293_YF]	0.473
IIRYNYLLDVL [FGFR4_Y237_S232I]	0.651
AQADIYKADFQ [IKBKG_Y308]	0.535
KPLMPYMRYSR [SMARCE1_Y73]	0.449
PVFIKYLPEWT [PSEN1_Y240_L235P]	0.715
KEDSVYGSQSV [NFKB2_Y868_A867V]	0.41
SLLLSYYLIKW [NUP160_Y773_P768S]	0.539
ADRTRYSAFGG [RBM4_Y361_A359T]	0.356
PPAPRYHHSAV [LZTR1_Y119]	0.44
AQAERYDDMAA [YWHAG_Y20_E15A]	0.595
KSIDEYLKLVG [RASAL2_Y381_E379D]	0.596

====

biological target: Grb2 SH2 (UniProt P62993); test: SH2 binding enrichment of the phosphorylated peptide, bacterial display (enrichment ratio); higher = better substrate or ligand; peptides without Tyr show the background
SH2 binding enrichment reference
PROPERTY_MEASURED: SH2 binding enrichment

CHAIN_SEQUENCE	ENDPOINT_RESULT
HVPEEYKPKQG [SAXO2_Y37]	0.956
ILGRTYYVNHE [NEDD4_Y627]	6.67
KRLKDYLMVLQ [USP25_Y425_T427M]	1.61
AGREIYESDKC [TTN_Y4424]	1.06
KPSLKYVTYGN [GALNTL5_Y404_G401S]	1.09
KDQGGYAMHQD [MAPT_Y29_T30A]	0.805
DVRQEYSGMIL [PLXND1_Y616_P617S]	0.696
HSREDYFECFQ [ZIM2_Y411_Q408R]	0.786
PRLMLYNPTTY [EGFR_Y270_P266R]	1.16
TSYSGYRYHRH [NKAPL_Y94]	0.985
PARLEYFENEK [IRS1_Y46_YF]	0.834
QMQAAYQKAVA [HBD_Y131_V134A]	0.893
CTHDLYMIMRE [FGFR3_Y724]	0.811
HKDNNYISMWF [PAPOLG_Y432_V433I]	0.726

====

target: SHP2-C SH2; test: SH2 binding enrichment of the phosphorylated peptide, bacterial display (enrichment ratio); higher = better substrate or ligand; peptides without Tyr show the background
PROPERTY_MEASURED: SH2 binding enrichment

CHAIN_SEQUENCE	PROPERTY_MEASURED	ENDPOINT_RESULT
DFPGNYSGFDD [POLR1C_Y33_YF]	SH2 binding enrichment	0.815
QRRFLYFFSFL [PTEN_Y176_V175L_YF]	SH2 binding enrichment	0.779
GHMYAYDWISI [BEST1_Y227_L224M]	SH2 binding enrichment	1.82
LASSEYPVQRR [GALK1_Y236_R239Q]	SH2 binding enrichment	0.794
AIMSFYAALIN [RYR1_Y2426_D2431N]	SH2 binding enrichment	1.18
FLTSSYINIST [IL23R_Y178_YF]	SH2 binding enrichment	1.33
LASLIYNFILF [AQP6_Y231_V234I]	SH2 binding enrichment	1.04
LMIEEYLTKEP [BAG3_Y457_L462P]	SH2 binding enrichment	0.953
CTTIHYNHMCN [TP53_Y234_Y236H]	SH2 binding enrichment	1.24
LSGFCYRLSDQ [PDCD6_Y124_G123C]	SH2 binding enrichment	0.776
CTTIHYNYMGN [TP53_Y234_C238G]	SH2 binding enrichment	0.842
FEEDSYVERSQ [RET_Y905_K907E_YF]	SH2 binding enrichment	0.618
LEVETYRRLLD [KRT12_Y429_I426V]	SH2 binding enrichment	0.64
GDYYRYLAEVA [YWHAG_Y133]	SH2 binding enrichment	0.905
ILGRTYYVNHE [NEDD4_Y627]	SH2 binding enrichment	2.73
MAFDRYVAICS [OR8D4_Y123_C120Y_YF]	SH2 binding enrichment	0.64
PLAVPYLDKPP [JMJD7_Y31]	SH2 binding enrichment	1.1
KSRQIYDAFIM [GRK3_Y109_R104K_YF]	SH2 binding enrichment	0.947
KGELRYMHSRV [ABCD1_Y281]	SH2 binding enrichment	1.33
KFEDVYVGICL [B3GALNT1_Y269]	SH2 binding enrichment	0.41
FSDQVYRQRRK [TH_Y230]	SH2 binding enrichment	0.446
NLMPAYFKCIQ [CYP21A2_Y190_YF]	SH2 binding enrichment	0.639
DLDTDYGSGYP [RNASEH2A_Y206]	SH2 binding enrichment	0.565
IIRYNYLLDVL [FGFR4_Y237_S232I]	SH2 binding enrichment	1.66
KRAIGYFSATS [FAM120A_Y327_YF]	SH2 binding enrichment	0.851
IDAVCYFRMEN [NPHS2_Y194_I192V_YF]	SH2 binding enrichment	0.607
HNVPICEGFAL [ACTC1_Y168_Y168C_YF]	SH2 binding enrichment	1.16
VKMLPYTEVTR [GDI1_Y93_L92P]	SH2 binding enrichment	0.863

====

target: FGFR1 (UniProt P11362); experiment: phosphorylation enrichment, bacterial display (enrichment ratio); higher = better substrate or ligand; peptides without Tyr show the background
Sequence (P11362 whole entry, looked up): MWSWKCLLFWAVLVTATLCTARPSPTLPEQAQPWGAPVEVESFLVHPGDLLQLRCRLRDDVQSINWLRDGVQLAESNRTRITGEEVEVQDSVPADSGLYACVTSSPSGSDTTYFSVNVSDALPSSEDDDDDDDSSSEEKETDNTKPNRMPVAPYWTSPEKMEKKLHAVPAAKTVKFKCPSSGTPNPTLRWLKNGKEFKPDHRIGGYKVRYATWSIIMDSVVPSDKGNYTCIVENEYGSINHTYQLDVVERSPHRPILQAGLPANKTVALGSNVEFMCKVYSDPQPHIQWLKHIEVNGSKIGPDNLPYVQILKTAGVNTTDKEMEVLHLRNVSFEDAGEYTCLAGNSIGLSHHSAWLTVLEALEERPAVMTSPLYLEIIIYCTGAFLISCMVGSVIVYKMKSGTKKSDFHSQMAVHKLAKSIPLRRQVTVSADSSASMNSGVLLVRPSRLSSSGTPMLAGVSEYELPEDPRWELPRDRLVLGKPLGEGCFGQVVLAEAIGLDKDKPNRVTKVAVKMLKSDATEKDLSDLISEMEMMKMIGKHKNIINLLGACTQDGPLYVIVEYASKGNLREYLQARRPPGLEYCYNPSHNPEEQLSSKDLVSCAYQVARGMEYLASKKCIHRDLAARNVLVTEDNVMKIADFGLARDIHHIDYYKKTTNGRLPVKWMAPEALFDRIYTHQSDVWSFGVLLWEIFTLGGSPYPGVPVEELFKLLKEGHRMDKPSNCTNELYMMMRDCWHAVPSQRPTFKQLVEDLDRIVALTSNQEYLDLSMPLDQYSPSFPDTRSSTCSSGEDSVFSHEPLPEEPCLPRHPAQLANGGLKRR
# binarize phosphorylation enrichment: threshold 0.5 inclusive, high side rule met, low side rule not met

CHAIN_SEQUENCE	QUALITATIVE_LABEL
IATAIYSGDKI [UGGT2_Y823]	rule not met
KGFRGYSFDDI [TMEM230_Y110_YF]	rule not met
IVAREYYSEAD [CAMK2A_Y106]	rule met
AKLVQYYMEHH [PTPN11_Y80_E76K]	rule met
LKLWDYRRGRC [WDR5B_Y239_S240R]	rule met
CEHRGFLYLAI [TEK_Y897_Y897F]	rule not met
HEKKAYAFCGT [RPS6KA3_Y226_S227A]	rule met
ETRWNYHFEVV [GCNT3_Y267_K266N]	rule met
NQDRTYYERVR [SPEN_Y632_S635R]	rule not met
CTTILYNYMCN [TP53_Y234_H233L]	rule met
TKDTFYKQPMV [GBA_Y451_F456V]	rule not met
SRPTQYSSFSC [SPEM2_Y104]	rule met
NTYEKYWLFYQ [GATM_Y103_P105L]	rule met
RPASQYPHQVP [ADAM12_Y895_P893S]	rule not met
SLDLSYFHTSS [EMD_Y181_P183H_YF]	rule met
CNNFIYGGCRG [SPINT2_Y163]	rule not met
LIPIKYKAMKK [MYD88_Y257]	rule met
SESSFYKSLNL [NGEF_Y289_A286S_YF]	rule not met
TFEPNYGTVKR [RAPGEF6_Y1447_Q1452R_YF]	rule not met
YTDPYYDYEIE [ZC3H18_Y372_A368T]	rule met
LASLIYNFILF [AQP6_Y231_V234I]	rule met
TSYSGYRYHRH [NKAPL_Y94]	rule not met
ILKPDYQPLAV [HYDIN_Y1072_I1077V]	rule not met
KTGDYYDLYGG [PTPN11_Y63_N58K]	rule met
AAVLNYKAGRD [GRIN2A_Y737]	rule not met
SNYRAYATEPH [TNNI3_Y29]	rule not met
SVTFTYSPALN [TP53_Y126_C124Y_YF]	rule not met
TKQLTYEEQYL [PIK3C3_Y310_D314Y]	rule not met
EDSEFYKAFEE [CASQ2_Y179_YF]	rule not met
PTTKTYFPHFY [HBA1_Y43_D48Y]	rule met
RGESFYQDRMN [RARS_Y338]	rule met
DSFATYFRWVL [H2BW1_Y84_R87W]	rule met
WCKPLYFSCAV [MMS22L_Y28_P27L]	rule met
HELFVYKCDEN [DOCK3_Y548_YF]	rule met
PHQTIYSALMI [FGF23_Y70]	rule met
ATVRPYRPYII [LRP5_Y1528_A1525V]	rule met
ADEEYYEIIAA [FEStide_no-pY_2014]	rule met
LSGFCYRLSDQ [PDCD6_Y124_G123C]	rule met
INASGYRIGPA [ACSM1_Y477]	rule not met
QLFGAYLRIHA [BSCL2_Y213_YF]	rule met
DEEDFYQGSME [ASCC1_Y36]	rule met
IRCQGYSHRIL [MYO3B_Y993_R990C]	rule not met
YEDTLYTVLHR [UNC13D_Y61_A59T]	rule met
RVQKRYIFDNV [RCN1_Y115]	rule not met
KEDSVYGSQSV [NFKB2_Y868_A867V]	rule not met
KPMDTYFDSTR [DYNC2H1_Y2230_YF]	rule met
AQQPIYVRVEG [NLRP7_Y318]	rule met
DPGVSYCTREE [PDHA1_Y301_R302C]	rule met
KNITEYCRDLI [RECQL_Y492]	rule not met
WPLKWYAPECI [ZAP70_Y506]	rule met
LEQDEYALRSH [HADHB_Y244]	rule met
